Just for reference, ChEMBL document CHEMBL4831493 is where these values come from.

measurement description: Tmax in Sprague-Dawley rat at 10 mg/kg, po measured up to 24 hrs by LC-MS/MS analysis
Format: ADME, organism-based
experimental conditions: in vivo
measurement name: Tmax (h)

>  <entry smiles>
O=C(Nc1cncc(OCC2CCN(Cc3ccc(F)cc3)CC2)c1)c1ccnc(NC(=O)C2CC2)c1

>  <test result>
1.9

$$$$
>  <entry smiles>
O=C(Nc1cncc(OCC2CCN(Cc3ccccc3)CC2)c1)c1ccnc(NC(=O)C2CC2)c1

>  <test result>
1.7

$$$$

---

Let's look at some compounds and their measured IC50.
system under test: Glycogen synthase kinase-3 beta (Homo sapiens, UniProt P49841)
Sequence (P49841 whole entry): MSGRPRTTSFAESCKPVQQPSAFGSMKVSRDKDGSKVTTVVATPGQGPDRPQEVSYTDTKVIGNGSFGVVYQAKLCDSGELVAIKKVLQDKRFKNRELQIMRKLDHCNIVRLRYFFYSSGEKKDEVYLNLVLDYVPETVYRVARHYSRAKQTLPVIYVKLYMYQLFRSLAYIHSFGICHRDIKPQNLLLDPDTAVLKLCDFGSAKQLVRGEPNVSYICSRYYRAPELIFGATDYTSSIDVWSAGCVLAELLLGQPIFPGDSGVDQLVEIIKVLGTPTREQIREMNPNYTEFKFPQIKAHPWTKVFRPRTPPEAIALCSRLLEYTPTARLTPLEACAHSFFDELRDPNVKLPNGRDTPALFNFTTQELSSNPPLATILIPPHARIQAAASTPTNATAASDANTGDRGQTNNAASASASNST
measurement description: Inhibition of human recombinant N-terminal His-tagged GSK3beta expressed in Escherichia coli using RRRPASVPPSPSLS RHS(pS)HQRR as substrate incubated for 30 mins in presence of ATP by Kinase-Glo reagent based luminescence assay
measurement name: IC50

>  <compound>
O=C(CC1CCN(Cc2ccc(F)cc2)CC1)Nc1n[nH]c2cc(-c3cccnc3)ccc12

>  <system under test>
Glycogen synthase kinase-3 beta (Homo sapiens, UniProt P49841)

>  <measurement name>
IC50

>  <test result>
> 10 µM

$$$$
>  <compound>
CC(=O)Nc1cc(C(=O)Nc2cccc(OCC3CCN(Cc4ccc(F)cc4)CC3)c2)ccn1

>  <system under test>
Glycogen synthase kinase-3 beta (Homo sapiens, UniProt P49841)

>  <measurement name>
IC50

>  <test result>
> 10 µM

$$$$
>  <compound>
COc1cc2c(cc1OC)C(=O)C(CC1CCN(Cc3ccccc3)CC1)C2 (stereo not drawn)

>  <system under test>
Glycogen synthase kinase-3 beta (Homo sapiens, UniProt P49841)

>  <measurement name>
IC50

>  <test result>
> 10 µM

$$$$

---

Measured log10(IC50) by item
system under test: Acetylcholinesterase (Electrophorus electricus)
Sequence (O42275 whole entry): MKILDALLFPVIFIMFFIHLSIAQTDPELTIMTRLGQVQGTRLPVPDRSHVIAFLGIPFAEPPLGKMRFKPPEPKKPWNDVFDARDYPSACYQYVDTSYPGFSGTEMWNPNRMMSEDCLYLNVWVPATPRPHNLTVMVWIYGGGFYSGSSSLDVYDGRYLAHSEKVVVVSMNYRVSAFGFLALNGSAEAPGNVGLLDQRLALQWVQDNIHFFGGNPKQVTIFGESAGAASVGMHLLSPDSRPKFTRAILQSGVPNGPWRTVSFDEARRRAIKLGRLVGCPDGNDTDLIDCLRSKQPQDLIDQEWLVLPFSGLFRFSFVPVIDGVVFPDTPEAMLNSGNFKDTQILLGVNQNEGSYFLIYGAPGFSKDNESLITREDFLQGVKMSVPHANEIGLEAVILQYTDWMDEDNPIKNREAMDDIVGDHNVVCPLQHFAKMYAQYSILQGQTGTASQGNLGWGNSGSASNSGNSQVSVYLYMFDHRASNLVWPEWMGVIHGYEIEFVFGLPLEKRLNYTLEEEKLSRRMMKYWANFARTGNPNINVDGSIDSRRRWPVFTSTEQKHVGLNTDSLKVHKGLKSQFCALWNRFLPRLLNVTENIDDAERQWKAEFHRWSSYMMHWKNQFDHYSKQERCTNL
measurement description: Inhibition of electric eel recombinant AChE preincubated for 1 min in presence of DNTB followed by addition of acetylthiocholine iodide substrate and measured after 20 mins by Ellman's method
measurement name: log10(IC50) (log10 of the value in µM)

>  <entry smiles>
O=C(NC1CCN(Cc2ccc(F)cc2)CC1)c1cncc(NC(=O)c2ccnc3[nH]ccc23)c1

>  <system under test>
Acetylcholinesterase (Electrophorus electricus)

>  <test result>
-0.39

$$$$
>  <entry smiles>
O=C(Nc1cncc(OCC2CCN(Cc3ccccc3)CC2)c1)c1ccnc2[nH]ccc12

>  <system under test>
Acetylcholinesterase (Electrophorus electricus)

>  <test result>
-2.64

$$$$
>  <entry smiles>
O=C(NCC1CCN(Cc2ccccc2F)CC1)c1n[nH]c2ccc(-c3cccnc3)cc12

>  <system under test>
Acetylcholinesterase (Electrophorus electricus)

>  <test result>
-0.14

$$$$
>  <entry smiles>
O=C(CC1CCN(Cc2ccccc2F)CC1)Nc1n[nH]c2cc(-c3cccnc3)ccc12

>  <system under test>
Acetylcholinesterase (Electrophorus electricus)

>  <test result>
-0.41

$$$$
>  <entry smiles>
O=C(CC1CCN(Cc2ccccc2)CC1)Nc1n[nH]c2cc(-c3cccnc3)ccc12

>  <system under test>
Acetylcholinesterase (Electrophorus electricus)

>  <test result>
-0.58

$$$$
>  <entry smiles>
O=C(NCC1CCN(Cc2cccc(F)c2)CC1)c1cncc(NC(=O)c2ccnc(NC(=O)C3CC3)c2)c1

>  <system under test>
Acetylcholinesterase (Electrophorus electricus)

>  <test result>
0.01

$$$$
>  <entry smiles>
O=C(NCC1CCN(Cc2ccc(F)cc2)CC1)c1cncc(NC(=O)c2ccnc(NC(=O)C3CC3)c2)c1

>  <system under test>
Acetylcholinesterase (Electrophorus electricus)

>  <test result>
0.06

$$$$
>  <entry smiles>
O=C(NCC1CCN(Cc2ccccc2F)CC1)c1cncc(NC(=O)c2ccnc(NC(=O)C3CC3)c2)c1

>  <system under test>
Acetylcholinesterase (Electrophorus electricus)

>  <test result>
0.24

$$$$
>  <entry smiles>
O=C(Nc1cncc(OCC2CCN(Cc3ccccc3F)CC2)c1)c1ccnc(NC(=O)C2CC2)c1

>  <system under test>
Acetylcholinesterase (Electrophorus electricus)

>  <test result>
-2.00

$$$$
>  <entry smiles>
O=C(Nc1cncc(OCC2CCN(Cc3ccccc3)CC2)c1)c1ccnc(NC(=O)C2CC2)c1

>  <system under test>
Acetylcholinesterase (Electrophorus electricus)

>  <test result>
-2.80

$$$$
>  <entry smiles>
Cc1ccccc1CN1CCC(CNC(=O)c2cncc(NC(=O)c3ccnc(NC(=O)C4CC4)c3)c2)CC1

>  <system under test>
Acetylcholinesterase (Electrophorus electricus)

>  <test result>
0.55

$$$$
>  <entry smiles>
COc1cccc(CN2CCC(CNC(=O)c3cncc(NC(=O)c4ccnc(NC(=O)C5CC5)c4)c3)CC2)c1

>  <system under test>
Acetylcholinesterase (Electrophorus electricus)

>  <test result>
0.95

$$$$
>  <entry smiles>
O=C(CC1CCN(Cc2ccc(F)cc2)CC1)Nc1n[nH]c2cc(-c3cccnc3)ccc12

>  <system under test>
Acetylcholinesterase (Electrophorus electricus)

>  <test result>
-0.67

$$$$
>  <entry smiles>
O=C(NCC1CCN(Cc2cccc(Cl)c2)CC1)c1cncc(NC(=O)c2ccnc(NC(=O)C3CC3)c2)c1

>  <system under test>
Acetylcholinesterase (Electrophorus electricus)

>  <test result>
-0.17

$$$$
>  <entry smiles>
CC(=O)Nc1cc(C(=O)Nc2cncc(OCC3CCN(Cc4ccc(F)cc4)CC3)c2)ccn1

>  <system under test>
Acetylcholinesterase (Electrophorus electricus)

>  <test result>
-1.80

$$$$
>  <entry smiles>
O=C(Nc1cncc(OCC2CCN(Cc3ccccc3Cl)CC2)c1)c1ccnc(NC(=O)C2CC2)c1

>  <system under test>
Acetylcholinesterase (Electrophorus electricus)

>  <test result>
-1.01

$$$$
>  <entry smiles>
O=C(NCC1CCN(Cc2ccccc2)CC1)c1n[nH]c2ccc(-c3cccnc3)cc12

>  <system under test>
Acetylcholinesterase (Electrophorus electricus)

>  <test result>
-0.26

$$$$
>  <entry smiles>
O=C(Nc1cncc(C(=O)NC2CCN(Cc3cccc(Cl)c3)CC2)c1)c1ccnc(NC(=O)C2CC2)c1

>  <system under test>
Acetylcholinesterase (Electrophorus electricus)

>  <test result>
-0.02

$$$$
>  <entry smiles>
O=C(NCC1CCN(Cc2ccc(F)c(F)c2)CC1)c1cncc(NC(=O)c2ccnc(NC(=O)C3CC3)c2)c1

>  <system under test>
Acetylcholinesterase (Electrophorus electricus)

>  <test result>
0.02

$$$$
>  <entry smiles>
O=C(Nc1cncc(C(=O)NC2CCN(Cc3ccccc3)CC2)c1)c1ccnc(NC(=O)C2CC2)c1

>  <system under test>
Acetylcholinesterase (Electrophorus electricus)

>  <test result>
-0.15

$$$$
>  <entry smiles>
O=C(NCC1CCN(Cc2cccc(Cl)c2)CC1)c1cncc(NC(=O)c2ccnc3[nH]ccc23)c1

>  <system under test>
Acetylcholinesterase (Electrophorus electricus)

>  <test result>
-0.06

$$$$
>  <entry smiles>
O=C(Nc1cncc(OC2CCN(Cc3ccccc3)CC2)c1)c1ccnc(NC(=O)C2CC2)c1

>  <system under test>
Acetylcholinesterase (Electrophorus electricus)

>  <test result>
0.99

$$$$
>  <entry smiles>
O=C(Nc1cncc(OCC2CCN(Cc3ccc(F)cc3)CC2)c1)c1ccnc(NC(=O)C2CC2)c1

>  <system under test>
Acetylcholinesterase (Electrophorus electricus)

>  <test result>
-1.93

$$$$
>  <entry smiles>
CC(=O)Nc1cc(C(=O)Nc2cccc(OCC3CCN(Cc4ccccc4)CC3)c2)ccn1

>  <system under test>
Acetylcholinesterase (Electrophorus electricus)

>  <test result>
0.34

$$$$

---

system under test: Glycogen synthase kinase-3 beta (Homo sapiens, UniProt P49841)
measurement description: Inhibition of human recombinant N-terminal His-tagged GSK3beta expressed in Escherichia coli using RRRPASVPPSPSLS RHS(pS)HQRR as substrate incubated for 30 mins in presence of ATP by Kinase-Glo reagent based luminescence assay
pIC50: −log10 of the molar value.
Measured pIC50 by item
measurement name: pIC50

>  <entry smiles>
O=C(CC1CCN(Cc2ccccc2)CC1)Nc1n[nH]c2cc(-c3cccnc3)ccc12

>  <comparison sign>
<

>  <test result>
5.00

$$$$
>  <entry smiles>
O=C(NCC1CCN(Cc2cccc(Cl)c2)CC1)c1cncc(NC(=O)c2ccnc3[nH]ccc23)c1

>  <comparison sign>
<

>  <test result>
5.00

$$$$
>  <entry smiles>
O=C(Nc1cncc(OCC2CCN(Cc3ccc(F)cc3)CC2)c1)c1ccnc(NC(=O)C2CC2)c1

>  <comparison sign>
=

>  <test result>
7.51

$$$$
>  <entry smiles>
Cc1cccc(CN2CCC(CNC(=O)c3cncc(NC(=O)c4ccnc(NC(=O)C5CC5)c4)c3)CC2)c1

>  <comparison sign>
=

>  <test result>
6.70

$$$$
>  <entry smiles>
Cc1ccccc1CN1CCC(CNC(=O)c2cncc(NC(=O)c3ccnc(NC(=O)C4CC4)c3)c2)CC1

>  <comparison sign>
=

>  <test result>
6.80

$$$$
>  <entry smiles>
O=C(Nc1cccc(OCC2CCN(Cc3ccccc3)CC2)c1)c1ccnc(NC(=O)C2CC2)c1

>  <comparison sign>
=

>  <test result>
5.01

$$$$
>  <entry smiles>
O=C(Nc1cncc(OCC2CCN(Cc3ccccc3)CC2)c1)c1ccnc(NC(=O)C2CC2)c1

>  <comparison sign>
=

>  <test result>
7.64

$$$$
